target: T1, human CD47 expressed on cells (CD47 expressing CHO cells, Jurkat, HL60, DLD1, Raji) (human, UniProt Q08722 19-292); test: EC50 (nM) as grade, flow cytometry, Fab on HL60 cells; legend +++: <1 nM
T1 construct: also called CHO-CD47; IAP
measurement_kind: EC50

{"columns": ["binder", "measurement_kind", "value_observed"],
 "data": [
  ["ABU20 (Fab) (Fab, V domains shown, Phage-derived Fab: murine VL and VH fused to human CL and CH1) VH: RGKVQESGPGLVKPSQSLSLTCSVTGYSITSGYYWNWIRQFPGNKLEWMGYINYDGSNNYNPSLKNRISITRDTSKNQFFLKLNSVTTEDTATYYCARGYYYGSSYGYWYFDVWGTGTTVTVSS VL: DAVVTQESALTTSPGETVTLTCRSSTGAVTTNNYANWVQEKPDHLFTGLIGGTNNRAPGVPARFSGSLIGDKAALTITGAQTEDEAIYFCALWYSNHLVFGGGTKLTVL", "EC50", "< 1 nM"],
  ["ABU8 (Fab) (Fab, V domains shown) VH: EVQLQQSGTELVKPGASVKLSCKASGYTFISYWMHWVKQRPGQGLEWIGNINPSSGNTNYNEKFKTKATLTVDKSSSTAYMQLSSLTSEDSAVYYCVRDYYGNYWGQGTTVTVSS VL: DIQMTQSPASLSASVGETVTITCRASENIYSYLAWYQQKQGKSPQLLVYNAKTLAEGVPSRFSGSGSGTQFSLKIKSLQPEDFGSYYCQHHYGTPLTFGGGTKLELK", "EC50", "< 1 nM"]
]}

Now turn to the next binder.
[ask] Can you share its EC50? I mean this binder: ABU11 (Fab) (Fab, V domains shown, Phage-derived Fab: murine VL and VH fused to human CL and CH1) VH: EVQLQQPGAELVRPGSSVKLSCKASGYSFTTYWMHWVKQRPGQGLEWIGNINPSSGDSHYNEKFKSKATLTVDKSSSTAYLQLNSLTSEDSAVYYCARDYYGAYWGHGTLVTVSA VL: DIQMTQSPASLSASVGETVTITCRASENVYSYLAWYQQKQGKSPQLLVYKANTLAEGVPSRFSGSGSGTQFSLKINSLQPEDFGTYYCQHHYGTPLTFGSGTKLEIK
[reply] < 1 nM
